Provenance of the data: paper PMC10117725

# EXPERIMENTAL_SYSTEM: Hsp90α (Homo sapiens, UniProt P07900)
# Construct: purchased Abcam
# Format: binding
# CONDITION_DESCRIPTION: dot blot, 2 µg blotted on membrane, 20 µg recombinant Hsp90α at 4°C overnight, α-Hsp90α immunodetection
# Method: Two µg of each peptide was blotted (dot blot) directly on PDV nitrocellulose membrane and blocked with ROTI®Block (Carl Roth, Germany). After washing, the membrane was then incubated with 20 μg of recombinant Hsp90α (Abcam)/Lpl1-his protein at 4°C overnight. In case of interaction studies with Hsp90α, α-Hsp90α (produced in mouse, Abcam) was used as the primary antibody and for interaction studies with Lpl1-his, Anti-6X His tag antibody (also produced in mouse, Sigma-Aldrich, Germany) was used. […]
Where no end group is shown, it is not given here.
PROPERTY_NAME: Interaction with Hsp90α

Worked cases, Interaction with Hsp90α given:
DEIVKELRSRYNISTEKSPILKMHIDGDLKGSSVGYRKLEI DFSKRENSKLSVIEFLSYKPAKK [L26, Lpl1-derived peptide that increased S. aureus internalization]
Yes
EMKNNKIIL [L17, Lpl1-derived peptide]
No
GKGNETKED [L1, Lpl1-derived peptide]
No
GHYFVTTFY [L13]
Yes
NKPGEL [L8, Lpl1-derived peptide]
No

Please examine the following record next.
*Q* Provide the documented Interaction with Hsp90α with Hsp90α (Homo sapiens, UniProt P07900) as the system for TAKGHYFVTTFYRNG [L15]
*A* Yes
